- Test system: OVCAR-5 ovarian
- experiment description: NCI tumour cell line growth inhibition, 48 h

{"compound": "N#Cc1nc(C2CC2)oc1N", "TGI": "> 100 µM"}
{"compound": "Cc1onc(-c2c(F)cccc2Cl)c1-c1ncc(-c2ccc(Cl)cc2)o1", "TGI": "> 100 µM"}
{"compound": "CNC(=S)N/N=C1\\CC(c2ccccc2)Oc2ccccc21 (centres undefined)", "TGI": "> 100 µM"}
{"compound": "[C-]#[O+].[Cl][Sn]([Cl])[Cl].[Cl][Sn]([Cl])[Cl].[Pt].c1ccc([PH+](c2ccccc2)c2ccccc2)cc1.c1ccc([PH+](c2ccccc2)c2ccccc2)cc1", "TGI": "> 100 µM"}
{"compound": "Cc1cccc2[nH]c3cc(O)cc(O)c3c(=O)c12", "TGI": "> 10 µM"}
{"compound": "O=C(CBr)N1CCC2(CC1)SSC1(CCN(C(=O)CBr)CC1)S2", "TGI": "3.03 µM"}
{"compound": "C/C(=N/NC(=O)c1ccncc1)c1ccc(NC(=O)C(=O)Nn2c(=S)[nH]c3ccccc3c2=O)cc1", "TGI": "> 100 µM"}
{"compound": "COC(=O)Nc1nc2ccc(Oc3ccc4nc(NC(=O)OC)[nH]c4c3)cc2[nH]1", "TGI": "> 100 µM"}
{"compound": "Cc1ccc(N/C(Sc2ccccc2)=C(/C(Cl)=C(Cl)Cl)[N+](=O)[O-])c(C)c1", "TGI": "23 µM"}

The measurements presented in this section are drawn from PubChem BioAssay (NCI).
